The reported numbers originate from paper PMC5137160.

For each of the compounds below, state its pKi.
# target.desc: hMMP-2 (Homo sapiens, UniProt P08253)
Lab note — pKi values are minus log10 of concentrations in M.

# get_value(readout='pKi', item= CC1(C)C(/C=C/C2=C(Oc3ccc(CCC(=O)NCCCOCCOCCOCCCNC(=O)[C@H](CCC(=O)[O-])NC(=O)[C@H](CCC(=O)O)NC(=O)[C@H](Cc4cc(-c5ccc(-c6cccc(Cl)c6)cc5)no4)CP(=O)(O)c4ccc(Br)cc4)cc3)C(=C/C=C3/N(CCC[N+](C)(C)C)c4ccc(S(=O)(=O)[O-])cc4C3(C)C)/CCC2)=[N+](CCC[N+](C)(C)C)c2ccc(S(=O)(=O)[O-])cc21 [probe 3] ) 5.67

Field entry: NC(=O)[C@H](CCC(=O)O)NC(=O)[C@H](CCC(=O)O)NC(=O)[C@H](Cc1cc(-c2ccc(-c3cccc(Cl)c3)cc2)no1)CP(=O)(O)c1ccc(Br)cc1 [RXP470.1, reference compound] 7.28

---

# target.desc: hMMP-2 (Homo sapiens, UniProt P08253)
# Sequence (P08253 110-660): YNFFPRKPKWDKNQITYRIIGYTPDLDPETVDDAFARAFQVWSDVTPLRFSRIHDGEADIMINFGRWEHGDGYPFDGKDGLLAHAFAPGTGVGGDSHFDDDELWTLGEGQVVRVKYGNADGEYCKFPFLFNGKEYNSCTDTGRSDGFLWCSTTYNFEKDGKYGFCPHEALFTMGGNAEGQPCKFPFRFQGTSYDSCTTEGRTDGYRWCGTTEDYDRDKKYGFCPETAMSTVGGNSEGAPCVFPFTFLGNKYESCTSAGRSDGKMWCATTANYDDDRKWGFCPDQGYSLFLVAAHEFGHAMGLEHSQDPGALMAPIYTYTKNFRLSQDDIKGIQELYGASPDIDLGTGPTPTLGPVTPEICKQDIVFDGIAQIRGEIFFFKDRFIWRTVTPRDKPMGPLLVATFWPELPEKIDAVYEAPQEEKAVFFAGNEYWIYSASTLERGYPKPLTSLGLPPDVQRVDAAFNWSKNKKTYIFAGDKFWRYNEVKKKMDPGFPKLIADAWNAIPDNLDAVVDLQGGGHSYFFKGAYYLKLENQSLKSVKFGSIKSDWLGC
Consider the following compounds; for each one, report its pKi.
Reminder that pKi means the negative base-10 logarithm of the concentration expressed in mol/L.

Need pKi, item `CC[N+]1=C(/C=C/C=C/C=C2/N(CCCCCC(=O)NCCCOCCOCCOCCCNC(=O)[C@H](CCC(=O)O)NC(=O)[C@H](CCC(=O)O)NC(=O)[C@H](Cc3cc(-c4ccc(-c5cccc(Cl)c5)cc4)no3)CP(=O)(O)c3ccc(Br)cc3)c3ccc4c(S(=O)(=O)[O-])cc(S(=O)(=O)O)cc4c3C2(C)C)C(C)(C)c2c1ccc1c(S(=O)(=O)O)cc(S(=O)(=O)O)cc21` 6.01

What do you have for `CC[N+]1=C(/C=C/C=C2/N(CCCCCC(=O)NCCCOCCOCCOCCCNC(=O)[C@H](CCC(=O)O)NC(=O)[C@H](CCC(=O)O)NC(=O)[C@H](Cc3cc(-c4ccc(-c5cccc(Cl)c5)cc4)no3)CP(=O)(O)c3ccc(Br)cc3)c3ccc(S(=O)(=O)[O-])cc3C2(C)C)C(C)(C)c2cc(S(=O)(=O)O)ccc21` ? 5.97
